assay: melting temperature; melt of duplexes; conditions: sodium 0.0675 M; strand 1 µM
So basically: is Tm under 50 °C? Then label 1. Not under? Then label 0.

Some solved entries appear below for comparison.
substance	category
CGACGTGCACCATGTGCTG+CAGCACATAGCGCACGTCG ((((((((.(.((((((((+)))))))).).))))))))	label 1
CGACGTGCATGATGTGCTG+CAGCACATAATGCACGTCG ((((((((((.((((((((+)))))))).))))))))))	label 0

Q. Tm under 50 °C? Item: CGACGTGCTACATGTGCTG+CAGCACATGAAGCACGTCG (((((((((.(((((((((+))))))))).)))))))))
A. label 0

Q. Tm under 50 °C? Item: CGACGTGCGGCATGTGCTG+CAGCACATGTGGCACGTCG ((((((((..(((((((((+)))))))))..))))))))
A. label 0

Q. Tm under 50 °C? Item: CGACGTGCCATATGTGCTG+CAGCACATGCTGCACGTCG ((((((((...((((((((+))))))))...))))))))
A. label 1

Q. Tm under 50 °C? Item: CGACGTGCAAGATGTGCTG+CAGCACATTCTGCACGTCG (((((((((..((((((((+))))))))..)))))))))
A. label 0

Q. Tm under 50 °C? Item: CGACGTGCTCGATGTGCTG+CAGCACATAGGGCACGTCG ((((((((.(.((((((((+)))))))).).))))))))
A. label 0

Q. Tm under 50 °C? Item: CGACGTGCAGTATGTGCTG+CAGCACATGCGGCACGTCG ((((((((.(.((((((((+)))))))).).))))))))
A. label 0

Q. Tm under 50 °C? Item: CGACGTGCTGTATGTGCTG+CAGCACATCAGGCACGTCG ((((((((...((((((((+))))))))...))))))))
A. label 0

Q. Tm under 50 °C? Item: CGACGTGCTAAATGTGCTG+CAGCACATATAGCACGTCG ((((((((((.((((((((+)))))))).))))))))))
A. label 0

Q. Tm under 50 °C? Item: CGACGTGCCATATGTGCTG+CAGCACATTCCGCACGTCG ((((((((...((((((((+))))))))...))))))))
A. label 1

Q. Tm under 50 °C? Item: CGACGTGCCTAATGTGCTG+CAGCACATTATGCACGTCG ((((((((.((((((((((+)))))))))).))))))))
A. label 0

Q. Tm under 50 °C? Item: CGACGTGCGGGATGTGCTG+CAGCACATGACGCACGTCG (((((((((..((((((((+))))))))..)))))))))
A. label 0

Q. Tm under 50 °C? Item: CGACGTGCGAAATGTGCTG+CAGCACATTCTGCACGTCG ((((((((..(((((((((+)))))))))..))))))))
A. label 0

Q. Tm under 50 °C? Item: CGACGTGCAATATGTGCTG+CAGCACATAATGCACGTCG (((((((((.(((((((((+))))))))).)))))))))
A. label 0

* * *

experiment: melting temperature; melt of duplexes; conditions: sodium 0.0675 M; strand 1 µM
metric: Tm (°C)
Reply numerically in °C, unit not repeated.

Q. Identify measured Tm corresponding to CGACGTGCTTTATGTGCTG+CAGCACATCGAGCACGTCG (((((((((..((((((((+))))))))..)))))))))
A. 51.3

Q. Identify measured Tm corresponding to CGACGTGCACCATGTGCTG+CAGCACATAGGGCACGTCG ((((((((.(.((((((((+)))))))).).))))))))
A. 51.5

Q. Identify measured Tm corresponding to CGACGTGCGCTATGTGCTG+CAGCACATCCAGCACGTCG ((((((((...((((((((+))))))))...))))))))
A. 49.8

Q. Identify measured Tm corresponding to CGACGTGCTACATGTGCTG+CAGCACATACCGCACGTCG ((((((((...((((((((+))))))))...))))))))
A. 47.5

Q. Identify measured Tm corresponding to CGACGTGCTCAATGTGCTG+CAGCACATTGTGCACGTCG ((((((((.((((((((((+)))))))))).))))))))
A. 56.7

Q. Identify measured Tm corresponding to CGACGTGCGCGATGTGCTG+CAGCACATGCAGCACGTCG ((((((((...((((((((+))))))))...))))))))
A. 55.8

Q. Identify measured Tm corresponding to CGACGTGCGGCATGTGCTG+CAGCACATACCGCACGTCG ((((((((((.((((((((+)))))))).))))))))))
A. 60

Q. Identify measured Tm corresponding to CGACGTGCTTCATGTGCTG+CAGCACATACTGCACGTCG ((((((((...((((((((+))))))))...))))))))
A. 48.3

Q. Identify measured Tm corresponding to CGACGTGCCAGATGTGCTG+CAGCACATGCCGCACGTCG ((((((((...((((((((+))))))))...))))))))
A. 49.5

Q. Identify measured Tm corresponding to CGACGTGCCTGATGTGCTG+CAGCACATTTTGCACGTCG ((((((((...((((((((+))))))))...))))))))
A. 48.8

Q. Identify measured Tm corresponding to CGACGTGCAGAATGTGCTG+CAGCACATAATGCACGTCG (((((((((..((((((((+))))))))..)))))))))
A. 54.2

Q. Identify measured Tm corresponding to CGACGTGCGTTATGTGCTG+CAGCACATTGCGCACGTCG (((((((((..((((((((+))))))))..)))))))))
A. 55.7

Q. Identify measured Tm corresponding to CGACGTGCTTGATGTGCTG+CAGCACATACCGCACGTCG ((((((((...((((((((+))))))))...))))))))
A. 48.4

Q. Identify measured Tm corresponding to CGACGTGCAATATGTGCTG+CAGCACATTATGCACGTCG (((((((((..((((((((+))))))))..)))))))))
A. 52.1

Q. Identify measured Tm corresponding to CGACGTGCCACATGTGCTG+CAGCACATTGGGCACGTCG (((((((((..((((((((+))))))))..)))))))))
A. 55

* * *

assay: melting temperature; melt of duplexes; settings: sodium 0.0675 M; strand 1 µM
Is Tm at least 50 °C? Then Fulfilled. If not, Not fulfilled.

Some solved entries appear below for comparison.
substance	category
CGACGTGCGAGATGTGCTG+CAGCACATACAGCACGTCG ((((((((...((((((((+))))))))...))))))))	Fulfilled
CGACGTGCCTTATGTGCTG+CAGCACATGGTGCACGTCG ((((((((...((((((((+))))))))...))))))))	Not fulfilled
CGACGTGCGTTATGTGCTG+CAGCACATGTCGCACGTCG (((((((((..((((((((+))))))))..)))))))))	Fulfilled
CGACGTGCGCGATGTGCTG+CAGCACATAAAGCACGTCG ((((((((...((((((((+))))))))...))))))))	Fulfilled
CGACGTGCTTTATGTGCTG+CAGCACATGAGGCACGTCG ((((((((.(.((((((((+)))))))).).))))))))	Fulfilled

Turning now to a further record.
Q. Quick check: does CGACGTGCTTGATGTGCTG+CAGCACATTTAGCACGTCG (((((((((..((((((((+))))))))..))))))))) have Tm greater than or equal to 50 °C?
A. Fulfilled

* * *

assay: melting temperature; melt of duplexes; conditions: sodium 0.0675 M; strand 1 µM
Tm overview
Reply numerically in °C, unit not repeated.

Worked examples follow.
substance	Tm, °C
CGACGTGCATGATGTGCTG+CAGCACATTGCGCACGTCG ((((((((...((((((((+))))))))...))))))))	49.1
CGACGTGCCAAATGTGCTG+CAGCACATTTAGCACGTCG ((((((((.((((((((((+)))))))))).))))))))	54.4
CGACGTGCTACATGTGCTG+CAGCACATGCGGCACGTCG ((((((((..(((((((((+)))))))))..))))))))	54.1
CGACGTGCAGTATGTGCTG+CAGCACATGCAGCACGTCG ((((((((.(.((((((((+)))))))).).))))))))	54.7
CGACGTGCCTCATGTGCTG+CAGCACATTTAGCACGTCG ((((((((...((((((((+))))))))...))))))))	47.5
CGACGTGCTGCATGTGCTG+CAGCACATGACGCACGTCG ((((((((..(((((((((+)))))))))..))))))))	52.9

Alright, here's another substance for you.
Q. Identify measured Tm corresponding to CGACGTGCCTTATGTGCTG+CAGCACATGCGGCACGTCG (((((((((..((((((((+))))))))..)))))))))
A. 52.3
